Biological target: Nicotinic acetylcholine receptor alpha8 subunit (Periplaneta americana)
Sequence (whole entry): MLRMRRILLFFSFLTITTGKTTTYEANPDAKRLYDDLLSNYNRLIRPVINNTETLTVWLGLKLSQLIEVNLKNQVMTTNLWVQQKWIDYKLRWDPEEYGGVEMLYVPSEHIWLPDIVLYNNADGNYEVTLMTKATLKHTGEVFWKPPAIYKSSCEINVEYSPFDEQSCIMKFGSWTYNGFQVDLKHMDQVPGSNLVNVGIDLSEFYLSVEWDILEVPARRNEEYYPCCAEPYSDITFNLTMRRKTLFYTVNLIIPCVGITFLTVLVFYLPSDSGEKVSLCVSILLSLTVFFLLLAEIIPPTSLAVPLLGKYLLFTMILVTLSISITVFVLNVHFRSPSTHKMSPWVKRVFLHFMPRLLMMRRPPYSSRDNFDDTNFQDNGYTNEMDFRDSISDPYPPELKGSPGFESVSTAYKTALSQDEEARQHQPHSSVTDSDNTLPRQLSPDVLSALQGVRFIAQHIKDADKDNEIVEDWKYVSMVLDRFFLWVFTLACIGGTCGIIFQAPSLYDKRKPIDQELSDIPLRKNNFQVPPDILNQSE
Experiment: Neuroblocking activity in Periplaneta americana (American cockroach) nicotinic acetylcholine receptor in abdominal fifth and sixth ganglia nerve assessed as neuroblocking concentration by neurophysiological test
Param label: returns satisfied when log(1/BC) < 6, returns not satisfied otherwise, including exact equality.

[[record]]
compound = "CN1CCN(Cc2ccc(Cl)nc2)/C1=C/[N+](=O)[O-]"
assigned_class = "satisfied"

[[record]]
compound = "O=[N+]([O-])/C=C1\\SCCN1Cc1ccc(Cl)nc1"
assigned_class = "not satisfied"

[[record]]
compound = "O=[N+]([O-])/C=C1\\CCCN1Cc1cnc(Cl)s1"
assigned_class = "not satisfied"

[[record]]
compound = "O=[N+]([O-])/N=C1\\NCCN1Cc1ccc(Cl)nc1"
assigned_class = "satisfied"

[[record]]
compound = "O=[N+]([O-])/C=C1\\CCCN1Cc1ccc(Cl)nc1"
assigned_class = "not satisfied"

[[record]]
compound = "O=[N+]([O-])Nc1nccn1Cc1ccc(Cl)nc1 [DEHYDROIMIDACLOPRID]"
assigned_class = "satisfied"

[[record]]
compound = "O=[N+]([O-])/C=C1\\NCCN1Cc1ccc(Cl)nc1"
assigned_class = "satisfied"

[[record]]
compound = "CN1CCN(Cc2ccc(Cl)nc2)/C1=N/[N+](=O)[O-]"
assigned_class = "satisfied"

[[record]]
compound = "O=[N+]([O-])/C=C1\\NCCN1Cc1cnc(Cl)s1"
assigned_class = "satisfied"

[[record]]
compound = "O=[N+]([O-])/N=c1\\[nH]ccn1Cc1cnc(Cl)s1"
assigned_class = "satisfied"

[[record]]
compound = "O=[N+]([O-])/N=c1\\sccn1Cc1cnc(Cl)s1"
assigned_class = "satisfied"

